testMethodNotes: small-molecule binders of probe aLefty1, primary screen, biochemical, small-molecule microarray, 635/667 nm fluorescence (AID 1153);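 further: score merges spot fluorescence with signal-to-noise ratio from the scanned slide images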
testConditions: higher = more signal
Each entry gets label 0 if its composite z-score stays under -0.07, and label 1 if its composite z-score is -0.07 or above.

Solved cases (10 shown):
CCOC(=O)C[C@H]1[C@H](OC(=O)c2ccc(C(=O)c3ccccc3)cc2)[C@@H](NC(=O)Cc2ccc(OC)cc2)c2cc(OCCCO)ccc2N1C(=O)Cc1ccc(OC)cc1 ... label 1
COC(=O)C1=CC(c2ccc(CO)cc2)=CC(c2cccs2)N(C)C=C1C(=O)OC (stereo not drawn) ... label 1
CC(C)NC(=O)[C@@H]1c2ccccc2C(=O)N(Cc2cc(F)cc(C(F)(F)F)c2)[C@H]1c1ccc(CO)cc1 ... label 0
CCOC(=O)C[C@H]1[C@H](OC(=O)Cc2ccc3c(c2)OCO3)[C@@H](NC(=O)c2ccc3ccccc3c2)c2cc(OCCCO)ccc2N1C(=O)c1ccc2ccccc2n1 ... label 1
COC(=O)C(CC#Cc1ccc2c(c1)[C@]1(C(=O)N2)[C@H](C(=O)O)[C@H]2C(=O)O[C@H](c3ccccc3)[C@H](c3ccccc3)N2[C@@H]1c1ccc(OCCO)cc1)C(=O)OC ... label 1
C=C(COC)/C(=C/C[C@H](OC(C)=O)c1cccc(OCCO)c1)c1cc(C(=O)OC)ccc1OC ... label 0
CC(C)CCC[C@@H](C)[C@H]1CC[C@@]2(C)C3=C(CC[C@]12C)[C@@]1(C)CC[C@H](OC(=O)CCl)C(C)(C)C1CC3 (stereo partly drawn) ... label 0
C=CCNC(=O)[C@H]1[C@@H]2C(=O)O[C@@H](c3ccccc3)[C@@H](c3ccccc3)N2[C@@H](c2ccccc2OCCO)[C@]12C(=O)N(C(=O)OCCOC)c1ccc(C#CCCO)cc12 ... label 1
CCCCCN1CC=CC23O[C@@H]4/C=C\CCC(C)OC(=O)C4[C@H]2C(=O)N(CCCO)[C@@H]3C1=O (stereo partly drawn) ... label 0
C=CCC(OC(C)=O)[C@@H]1[C@@H](N(Cc2cccc3ccccc23)C(=O)c2cccc3ccccc23)c2cc(OCCCO)ccc2N1C(=O)Cc1ccc(OC)cc1 (stereo partly drawn) ... label 1

Check this molecule for composite z-score at or above -0.07: C=CCC(OC(C)=O)[C@@H]1[C@@H](N(Cc2cccc3ccccc23)C(=O)Cc2ccc(OC)cc2)c2cc(OCCCO)ccc2N1C(=O)Cc1ccc(OC)cc1 (stereo partly drawn) label 1

Check this molecule for composite z-score at or above -0.07: "O=C1O[C@H](c2ccccc2)[C@H](c2ccccc2)N2[C@H]1[C@@H](C(=O)NC[C@H](O)c1ccccc1)[C@]1(C(=O)Nc3ccc(C#CC4(O)CCCCCC4)cc31)[C@H]2c1ccc(O)cc1" label 1

Check this molecule for composite z-score at or above -0.07: "COC(=O)c1c2oc(c1C(=O)OC)C(=O)N[C@@H](C(C)C)Cn1nncc1C1(CCCCC1)NC(=O)N[C@H](CO)CC2" label 0

Check this molecule for composite z-score at or above -0.07: "COc1ccc(C(=O)Nc2cccc(CN3C(=O)[C@@]4(O[C@@H](CCO)[C@H]([Si](C)(C)c5ccc(OC)cc5)[C@H]4C)c4ccccc43)c2)cc1" label 1

Check this molecule for composite z-score at or above -0.07: "O=C(NO)[C@]1(Cc2ccccc2)N=C(c2ccc(OCCCO)cc2)O[C@@H]1c1ccccc1" label 1

Check this molecule for composite z-score at or above -0.07: "C=CCC1(CC=C)C[C@H]2CO[C@H](c3ccc(OC)cc3)N2C1=O" label 1

Check this molecule for composite z-score at or above -0.07: "C=C(/C(=C/C[C@H](OC(C)=O)c1cccc(OCCO)c1)c1cc(C(=O)OC)ccc1OC)C(C)C" label 0

Check this molecule for composite z-score at or above -0.07: "CCCCCCC#C[Si](O[C@H](c1ccccc1)c1cn(Cc2ccccc2)nn1)(C(C)C)C(C)C" label 0
